Assay: A CellTox Green Cytotoxicity Assay to monitor cytotoxicity in HEK293 cells - 8 hour (AID 1224884); also: nearly all actives have a fitted effect of over 35% in size
Details: CellTox Green fluorescence; series mostly up to 76.8 µM
Results filed as inconclusive are left out. Calls of active or inactive are those of the source. Calls follow the shape of the dose curve; as a rule, active = well fitted activation curve with a large enough effect in the repeat runs; inconclusive = weak or mixed curves; inactive = flat fitted curve, though single readings scatter.
Your response should consist of one outcome taken from true (1) for active, false (0) for inactive

Check out these entries, answers already filled in.
INSERT INTO results (molecule, group) VALUES
  ('C=CCC1=C(C)C(OC(=O)C2C(C=C(C)C)C2(C)C)CC1=O (stereo unspecified)', 'true (1)'),
  ('CC(=O)Nc1ccc2c(c1)Cc1ccccc1-2', 'false (0)'),
  ('CC1(C)[C@H](C(=O)O[C@H](C#N)c2cccc(Oc3ccccc3)c2)[C@@H]1/C=C(\Cl)C(F)(F)F', 'false (0)'),
  ('CC[C@H]1C[C@@H]2C[C@H]3c4[nH]c5ccc(OC)cc5c4CCN(C2)[C@@H]13', 'false (0)'),
  ('CC(C)(C)C(O)/C(=C\c1ccc(Cl)cc1Cl)n1cncn1 (stereo unspecified)', 'false (0)');

Problem: Per the assay record, what outcome was assigned to CC(C)(COCC1CO1)COCC1CO1 (stereo unspecified) ?
Solution: false (0)

Problem: In this assay, the call recorded for O=C(Nc1ccc2[nH]ccc2c1)c1cc2cc(F)ccc2n1Cc1cccc(F)c1 was what?
Solution: false (0)

Problem: Check the results log: what was the call for CCSC(C)CC1CC(=O)C(/C(CC)=N/OC/C=C/Cl)=C(O)C1 (stereo unspecified) ?
Solution: false (0)

Problem: For Oc1c(Cl)c(Cl)cc(Cl)c1Cl , which call appears in the assay record?
Solution: false (0)

Problem: Per the assay record, what outcome was assigned to CC(C)CBr ?
Solution: false (0)

Problem: What call does the record list for O=c1oc2ccccc2c(O)c1Cc1c(O)c2ccccc2oc1=O ?
Solution: false (0)

* * *

Test: qHTS assay to identify small molecule antagonists of the progesterone receptor (PR) signaling pathway - cell viability counter screen (AID 1346798); also: nearly all actives have a fitted effect of over 50% in size; also: potency is read from the fitted curve at half-maximal effect
Details: PR-UAS-bla HEK293T viability, CellTiter-Glo luminescence, 16 h; series mostly up to 92.4 µM
Records with an inconclusive call do not appear. Activity calls are given as the source filed them. The call rests on the fitted dose curve; in most records, active means well fitted cell-killing curve with a large enough effect in the repeat runs; inconclusive means weak or mixed curves, or effect the other way; inactive means no such curve, though single readings can be large or run the other way.
experimental-readout: Potency

Solved entries (count: 5):
INSERT INTO measurements (compound, result) VALUES
  ('C=CC(=O)OCC(COC(=O)C=C)(COC(=O)C=C)COC(=O)C=C', '17.2 µM (active)'),
  ('CCOCn1c(-c2ccc(Cl)cc2)c(C#N)c(Br)c1C(F)(F)F', '12.2 µM (active)'),
  ('O=CC(Br)(Br)Br', 'inactive'),
  ('C[C@]12CC[C@@H]3c4ccc(OC(=O)N(CCCl)CCCl)cc4CC[C@H]3[C@@H]1CC[C@@H]2O', 'inactive'),
  ('ClC1=C(Cl)[C@]2(Cl)[C@@H]3[C@@H](Cl)[C@H](Cl)C[C@@H]3[C@@]1(Cl)C2(Cl)Cl', 'inactive');

Problem: Output measured Potency for this item: O=[N+]([O-])c1cc(C(F)(F)F)c(Cl)c([N+](=O)[O-])c1Cl
Solution: 54.5 µM (active)

Problem: Supply Potency value. Item: N#Cc1ccc(O)cc1
Solution: inactive

Problem: Please list Potency recorded for the compound COP(=O)(CCC(=O)NCO)OC
Solution: inactive

Problem: Given O=[N+]([O-])c1ccc2ccc3cccc4ccc1c2c34 , respond with its Potency.
Solution: inactive

Problem: Respond only with Potency recorded for O=c1ssc(Cl)c1Cl
Solution: inactive

Problem: Give the value of Potency reported for the following: Nc1ccccc1C(=O)Oc1ccc2ccccc2c1
Solution: inactive

Problem: # return recorded Potency for input CC(O)C#N (stereo not drawn)
Solution: inactive

Problem: Provide measured Potency value, entry: Cc1ccc(CCl)cc1
Solution: inactive

* * *

Assay: qHTS assay to identify small molecule antagonists of the estrogen related receptor signaling pathway with the pleiotropic PPARgamma coactivator (PGC) from Tox21 10K library (AID 1224841); also: actives are mostly falling curves and most rising ones were filed inactive; nearly all actives have a fitted effect of over 50% in size
Settings: PGC/ERR reporter cell line, ONE-Glo luciferase, 18 h; series mostly up to 92.4 µM
Inconclusive results are not listed. The source made the active and inactive calls. No rule for the calls is given here.
Permitted responses: Yes for active, No for inactive

Field: example entries. Status: answers known.
INSERT INTO measurements (molecule, group) VALUES
  ('COC[C@H](C)N(C(=O)CCl)c1c(C)csc1C', 'No'),
  ('CC(C)(C)c1ccc(CSc2cnn(C(C)(C)C)c(=O)c2Cl)cc1', 'Yes'),
  ('c1ccc2cc3c(cc2c1)-c1cccc2cccc-3c12', 'No'),
  ('OC(Cc1ccccc1Cl)(Cn1cncn1)C1(Cl)CC1 (configuration not stated)', 'Yes'),
  ('Cc1cc(C)cc(OP(=O)(Oc2cc(C)cc(C)c2)Oc2cc(C)cc(C)c2)c1', 'No'),
  ('COCC(=O)N(c1c(C)cccc1C)[C@H](C)C(=O)OC', 'No');

Problem: // return assay outcome for CC(C)(c1ccc(O)c(-c2ccccc2)c1)c1ccc(O)c(-c2ccccc2)c1
Solution: Yes

Problem: Hi, sorry to bother you, what did the test record for Cc1ccc(OP(=O)(Oc2ccccc2)Oc2ccccc2)cc1 ?
Solution: Yes

Problem: Hello, I am checking results. What call was entered for Oc1cc(Cl)c(Cl)c(Cl)c1 ?
Solution: Yes

Problem: Recorded test call requested for CCc1nn(C)c(C(=O)NCc2ccc(C(C)(C)C)cc2)c1Cl
Solution: Yes

Problem: Would you mind telling me which call this test gave CC(C)(C)c1cc([N+](=O)[O-])cc(C(C)(C)C)c1O ?
Solution: Yes

Problem: Call for entry Cc1ccc(CCl)cc1 :
Solution: No

* * *

Assay: qHTS assay to identify small molecule agonists of the estrogen receptor beta (ER-beta) signaling pathway - cell viability counter screen (AID 1259380); also: nearly all actives have a fitted effect of over 30% in size
Details: ER-beta-bla HEK293T viability, CellTiter-Glo luminescence, 16 h; series mostly up to 92.4 µM
Records with an inconclusive call do not appear. Active and inactive are the calls of the source. Calls follow the shape of the dose curve; as a rule, active = well fitted cell-killing curve with a large enough effect in the repeat runs; inconclusive = weak or mixed curves, or effect the other way; inactive = flat fitted curve, though single readings scatter.
Your reply should match one of these outcome classes. label 1 (active), label 0 (inactive)

Known results for compounds:
INSERT INTO measurements (compound, group) VALUES
  ('CCc1ccccc1C', 'label 0'),
  ('O=C(CCl)C(Cl)Cl', 'label 1'),
  ('BrCC(Br)c1ccccc1 (stereo not given)', 'label 0'),
  ('CC(C)C(=O)Cl', 'label 0'),
  ('[Cl][Sb]([Cl])[Cl]', 'label 0'),
  ('Nc1ccc(Cc2ccc(N)c(Cl)c2)cc1Cl', 'label 1'),
  ('CC(=O)c1cc(C(C)(C)C)cc2c1CCC2(C)C', 'label 0'),
  ('C[C@]12Cc3nonc3C[C@@H]1CC[C@@H]1[C@@H]2CC[C@@]2(C)[C@H]1CC[C@]2(C)O', 'label 1'),
  ('Cn1cc(C2=C(c3cn(C4CCN(Cc5ccccn5)CC4)c4ccccc34)C(=O)NC2=O)c2ccccc21', 'label 0'),
  ('COP(N)(=S)OC', 'label 0');

Problem: What classification did CC(=O)Nc1ccc2c(c1)Cc1ccccc1-2 end up with in this test?
Solution: label 0

Problem: Can you look up the reported call for N#Cc1ccc(O)cc1 for me?
Solution: label 0

Problem: What did the test return for O=[N+]([O-])c1ccc2ccc3cccc4ccc1c2c34 ?
Solution: label 1

Problem: Called result for NNC(=O)c1ccccc1
Solution: label 0

* * *

Assay: qHTS assay to identify small molecule agonists of the RXR signaling pathway - cell viability counter screen (AID 1159529); also: nearly all actives have a fitted effect of over 50% in size
Conditions: RXR-alpha-bla HEK293T viability, CellTiter-Glo, 16 h; series mostly up to 76.8 µM
Records with an inconclusive call do not appear. Calls of active or inactive are those of the source. The call rests on the fitted dose curve; in most records, active means well fitted cell-killing curve with a large enough effect in the repeat runs; inconclusive means weak or mixed curves, or effect the other way; inactive means no such curve, though single readings can be large or run the other way.
Could you please pick one outcome from this set? active, inactive

Examples from the recorded data:
INSERT INTO results (compound, group) VALUES
  ('FC(Cl)(Cl)Cl', 'inactive'),
  ('CCCCCCCCCCCCCN1CC(C)OC(C)C1 (centres undefined)', 'inactive'),
  ('C[C@H]1CC[C@@H]2[C@@H](C)[C@H]3[C@H](C[C@H]4[C@@H]5CC=C6CC(O[C@@H]7O[C@H](CO)[C@H](O)[C@H](O[C@@H]8O[C@H](CO)[C@@H](O)[C@H](O)[C@H]8O)[C@H]7O[C@H]7O[C@@H](C)[C@H](O)[C@@H](O)[C@H]7O)CC[C@]6(C)[C@H]5CC[C@]34C)N2C1 (some centres undefined)', 'active'),
  ('O=c1c(C2CC(c3ccc(-c4ccc(Br)cc4)cc3)Cc3ccccc32)c(O)sc2ccccc12 (centres undefined)', 'inactive'),
  ('CCOP(=O)(NC(C)C)Oc1ccc(SC)c(C)c1 (centres undefined)', 'inactive'),
  ('ClC(Cl)=C(Cl)Cl', 'inactive'),
  ('C=CC(=O)OCCCCOC(=O)C=C', 'inactive'),
  ('O=C/C(Cl)=C(/Cl)C(=O)O', 'inactive');

Problem: Kindly provide the recorded test outcome for the following compound: CC(=O)c1cc(C(C)(C)C)cc2c1CCC2(C)C
Solution: inactive

Problem: Can you look up the reported call for CC(=O)c1ccc(-c2ccccc2)cc1 for me?
Solution: inactive

Problem: Hey, what did the test say about c1ccc(Nc2ccc3ccccc3c2)cc1 ?
Solution: active

Problem: How did this test come out for CCCCCCCCCBr ?
Solution: inactive

Problem: Lab log entry: CN(C)C(=S)[S-].CN(C)C(=S)[S-].[Cu+2] — outcome as called in the assay?
Solution: active

Problem: Call for entry Cc1ccc(CCl)cc1 :
Solution: inactive

Problem: Entry C=CC(=O)N(C)C : call = ?
Solution: inactive

Problem: Can you look up the reported call for C[C@@H](Oc1ccc(Cl)cc1Cl)C(=O)O for me?
Solution: inactive
